# credit: patent US20260098059A1

# experimental_system: T1, β-catenin (UniProt P35222 134-665, limits assumed, biotinylated in the SPR and plate assays)
# T1 sequence (looked up): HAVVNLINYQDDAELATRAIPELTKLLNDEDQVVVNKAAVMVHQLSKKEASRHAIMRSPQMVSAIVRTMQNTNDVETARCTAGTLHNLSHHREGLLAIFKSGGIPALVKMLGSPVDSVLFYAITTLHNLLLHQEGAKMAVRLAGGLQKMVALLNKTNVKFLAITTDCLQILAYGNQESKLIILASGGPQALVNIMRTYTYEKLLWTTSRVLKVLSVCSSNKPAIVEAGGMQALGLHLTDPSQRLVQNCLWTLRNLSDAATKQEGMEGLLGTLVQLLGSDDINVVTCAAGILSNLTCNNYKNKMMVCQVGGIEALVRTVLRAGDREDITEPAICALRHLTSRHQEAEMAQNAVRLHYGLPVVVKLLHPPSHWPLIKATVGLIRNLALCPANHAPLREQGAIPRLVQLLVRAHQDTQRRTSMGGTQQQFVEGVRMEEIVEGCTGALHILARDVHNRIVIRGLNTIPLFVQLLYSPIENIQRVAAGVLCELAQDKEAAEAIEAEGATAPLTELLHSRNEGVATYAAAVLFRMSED
# assay_explanation: cell-based or functional assay
Bridges are numbered along the chain shown (N, C = ends). Where no end group is shown, it is not given here. [ ]: non-standard residue; d: D form. The star is where a group is joined. NMeW = CN[C@@H](Cc1c[nH]c2ccccc12)C(=O)O; Stearoyl = CCCCCCCCCCCCCCCCCC(=O)*; Palmitoyl = CCCCCCCCCCCCCCCC(=O)*; Chg = N[C@H](C(=O)O)C1CCCCC1; αMeV = CC(C)[C@](C)(N)C(=O)O; αMeS = C[C@](N)(CO)C(=O)O; NMeA = CN[C@@H](C)C(=O)O
Record YES whenever Proliferation IC50, Endo cells is at 8 µM or higher; record NO when lower.

Consider the following illustrative entries.
KLWALIXAWD (HELM PEPTIDE1{[ac].K.[Nle].W.[Cha].L.I.[Abu].A.W.D}$PEPTIDE1,PEPTIDE1,2:R3-11:R3$$$V2.0; SMILES CCCC[C@@H]1NC(=O)[C@@H](NC(C)=O)CCCCNC(=O)C[C@@H](C(=O)O)NC(=O)[C@H](Cc2c[nH]c3ccccc23)NC(=O)[C@H](C)NC(=O)[C@H](CC)NC(=O)[C@H]([C@@H](C)CC)NC(=O)[C@H](CC(C)C)NC(=O)[C@H](CC2CCCCC2)NC(=O)[C@H](Cc2c[nH]c3ccccc23)NC1=O, also called Cyclo-acetyl-K*Nle-W-3-cyclohexyl-L-alanine-LI-(amino butyric acid-AWD*-COOH)) [Peptide 2 (SEQ ID NO: 215)] = YES
Palmitoyl-W[NMeW]E[αMeS]ILDEH[αMeV]QRVWG-OH [SEQ ID NO: 396] = YES
KWGLIXAWD (HELM PEPTIDE1{[ac].K.W.[O=C([C@@H](N[*:1])C1CCCCC1)[*:2]].L.I.[Abu].A.W.D}$PEPTIDE1,PEPTIDE1,2:R3-10:R3$$$V2.0; SMILES CC[C@@H]1NC(=O)[C@H]([C@@H](C)CC)NC(=O)[C@H](CC(C)C)NC(=O)[C@H](C2CCCCC2)NC(=O)[C@H](Cc2c[nH]c3ccccc23)NC(=O)[C@@H](NC(C)=O)CCCCNC(=O)C[C@@H](C(=O)O)NC(=O)[C@H](Cc2c[nH]c3ccccc23)NC(=O)[C@H](C)NC1=O) [SEQ ID NO: 262] = YES
W[NMeA]QKILDDH[Chg]QRVWG-NH2 (lactam 4-8; not fully specified (N-terminus); printed as H23C11C(O)NH-W-NMeA-QK*ILDD*H-Chg-QRVWG-NH2) [SEQ ID NO: 432] = NO
Stearoyl-W[NMeW]E[αMeS]ILDEH[αMeV]QRVW-OH (393 used) [Peptide 4 (SEQ ID NO: 393/500)] = NO

Now for a further binder.
Query block: # bool: Proliferation IC50, Endo cells of KWALIXAWD (HELM PEPTIDE1{[ac].K.W.[Cha].L.I.[Abu].A.W.D}$PEPTIDE1,PEPTIDE1,2:R3-10:R3$$$V2.0; SMILES CC[C@@H]1NC(=O)[C@H]([C@@H](C)CC)NC(=O)[C@H](CC(C)C)NC(=O)[C@H](CC2CCCCC2)NC(=O)[C@H](Cc2c[nH]c3ccccc23)NC(=O)[C@@H](NC(C)=O)CCCCNC(=O)C[C@@H](C(=O)O)NC(=O)[C@H](Cc2c[nH]c3ccccc23)NC(=O)[C@H](C)NC1=O) [SEQ ID NO: 261] >= 8 µM
Result block: NO
